target: T1, CTLA4-Fc fusion protein (human, biotinylated where used as CTLA4-Fc-Biotin (Examples 5.1-5.3)); experiment: ELISA OD ratio, value equals OD(CTLA4)/OD(Fc)
T1 construct: expressed in HEK293 cells; also called human CTLA4-Fc protein; CTLA4-Fc antigen protein
T1 sequence (chain, as listed by the source limits assumed): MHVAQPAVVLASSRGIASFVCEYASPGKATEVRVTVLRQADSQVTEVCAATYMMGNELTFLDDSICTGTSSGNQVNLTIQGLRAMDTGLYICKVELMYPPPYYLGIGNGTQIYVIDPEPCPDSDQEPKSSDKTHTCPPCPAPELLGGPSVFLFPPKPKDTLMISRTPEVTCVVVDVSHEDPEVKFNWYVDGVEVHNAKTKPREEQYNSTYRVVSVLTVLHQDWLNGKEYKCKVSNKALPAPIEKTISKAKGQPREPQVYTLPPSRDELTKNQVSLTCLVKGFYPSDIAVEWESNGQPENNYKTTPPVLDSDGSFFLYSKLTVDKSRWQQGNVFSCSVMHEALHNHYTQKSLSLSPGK
Assign 1 (yes) whenever ODa/OD blank does not fall below 30; assign 0 (no) whenever it does.

Use the examples below as a reference point.
Hello, I need to know if CTLA4 heavy chain single domain antibody No. J5 (VHH, Camel VHH expressed in E. coli (PET32b), nickel-purified) VHH: QVQLQESGGGSVQAGGSLRLSCAASGYTYSTYCMAWFRQVPEKERERVASIYTGGGTTYYADSVKGRFTISLDNAKNTLYLQMNSLKPEDTAMYYCAKSAARCDSSRDVNRLGYWGQGTQVTVSS has measured ODa/OD blank not below 30. Thanks!
1 (yes)

Hello, I need to know if CTLA4 heavy chain single domain antibody No. 116 (VHH, Camel VHH expressed in E. coli (PET32b), nickel-purified) VHH: QVQLQESGGGLVQPGGSLRLSCEASGFTFSSYTMTWLRQAPGKGLEWVSTINSGGSTSYADSVKGRFAISRDNAKNTLYLQLNSLEIEDTGMYYCQGGLTRGQGTQVTVSS has measured ODa/OD blank not below 30. Thanks!
0 (no)

Hello, I need to know if CTLA4 heavy chain single domain antibody No. J35 (VHH, Camel VHH expressed in E. coli (PET32b), nickel-purified) VHH: QVQLQESGGGSVQAGGSLRLSCAASGYTSGYYVMGWYRQAPGKLREFVSSIDSNGGTMYADSVKGRFTISQDNAKNTAHLQMNSLKPEDTAMYYCKRDSPGNFYWGQGTQVTVSS has measured ODa/OD blank not below 30. Thanks!
0 (no)

Hello, I need to know if CTLA4 heavy chain single domain antibody No. C1 (VHH, Camel VHH expressed in E. coli (PET32b), nickel-purified, detected by anti-His tag antibody) VHH: QVQLQESGGGSVQAGGSLGLSCAASGYIYSAYCMGWFRQAPGKEREGVAAIYLGGGSTYYADSVKGRFTISQDIAKNTLYLQMNSLKPEDTAMYSCAADVIPTETCLGGSWSGPFGYWGQGTQVTVSS has measured ODa/OD blank not below 30. Thanks!
0 (no)

Hello, I need to know if CTLA4 heavy chain single domain antibody No. 165 (VHH, Camel VHH expressed in E. coli (PET32b), nickel-purified) VHH: QVQLQESGGGSVQTGGSLRLSCVVSGHSYSRKCMGWFRQAPGKEREEVATFYTGDGRTYYADSVKGRFTISQDNAKNTLYLQMNSLKPEDTGMYFCAADRRVNCDLLQSTFYNYRGQGTQVTVSS has measured ODa/OD blank not below 30. Thanks!
0 (no)

Hello, I need to know if CTLA4 heavy chain single domain antibody No. C2 (VHH, Camel VHH expressed in E. coli (PET32b), nickel-purified) VHH: QVQLQESGGGSVQPGGSLRLSCAVSGFTFSGYCMAWVRQAPGKGLEWVASIHRRDGSTDYADSVKGRFTISKDNSKNTLYLQMSSLKPEDTAVYYCAADPARLSCSGRVNSEYKYRGQGTQVTVSS has measured ODa/OD blank not below 30. Thanks!
1 (yes)

Shifting focus to the binder that follows.
Hello, I need to know if CTLA4 heavy chain single domain antibody No. J39 (VHH, Camel VHH expressed in E. coli (PET32b), nickel-purified) VHH: QVQLQESGGGSVQAGGSLRLSCAPSRYSGALMGWFRQAPGKEREGVAVISRSGLTTYYADSVKGRFTISQDTAKNTIYLQMNSMKPEDTAMYYCVAAPEARAWSSRDPTGYNYWGQGTQVTVSS has measured ODa/OD blank not below 30. Thanks!
1 (yes)
